system: anti-M2 human monoclonal antibody Z3G1; assay type: binding
OBSERVATION_TYPE: Signal (peptides that bind to Z3G1)
Note: the reply should be a number with no unit written.

1445 (CVETPIRNEWLLTEVETPICLTEVETPIR; epitope peptide; MISC_FEATURE (1)..(1): C is an attachment site for a CLIP; MISC_FEATURE (10)..(10): W is an attachment site for a CLIP; MISC_FEATURE (11)..(11): L is an attachment site for a CLIP; MISC_FEATURE (29)..(29): R is an attachment site for a CLIP) [compound 1445] | 2280

Return reported Signal (peptides that bind to Z3G1); argument: 443 (SLLTEVETPIRNEWGCR; epitope peptide) [compound 443]
2444

Return reported Signal (peptides that bind to Z3G1); argument: 317 (MSLLTEVGMSLCTEV; epitope peptide) [compound 317]
2895

Return reported Signal (peptides that bind to Z3G1); argument: 592 (MSLCTEVGCSLLTEC; epitope peptide) [compound 592]
1971

Return reported Signal (peptides that bind to Z3G1); argument: 1297 (MSLLTQVETPIRNEWGCRCN; epitope peptide) [compound 1297]
1697

Return reported Signal (peptides that bind to Z3G1); argument: 414 (SLLTEVETPIRNEWGCRCNDQSD; epitope peptide) [compound 414]
2349

Return reported Signal (peptides that bind to Z3G1); argument: 1368 (SLLTEVETPCRNE; epitope peptide) [compound 1368]
1665

Return reported Signal (peptides that bind to Z3G1); argument: 528 (MSLLTCVGCSLLTEV; epitope peptide) [compound 528]
2467

---

test system: HuM2e antibody 23K12; type: binding, human
Listing: Signal (peptides that bind to 23K21 and 8I10) of selected substances
Note: the reply should be a number with no unit written.

Known results for substances:
618 (SLLTEVETPIRNEWGCRCLDSSD; epitope peptide) [compound 618] | 807
699 (SLLTEVETPIRNEWGCRYNDSSD; epitope peptide) [compound 699] | 716

Return reported Signal (peptides that bind to 23K21 and 8I10); argument: 573 (SLLTEVETPIRNEWGCRTNDSSD; epitope peptide) [compound 573]
867

Return reported Signal (peptides that bind to 23K21 and 8I10); argument: 602 (SLLTEVETEIRNEWGCRCNDSSD; epitope peptide) [compound 602]
828

Return reported Signal (peptides that bind to 23K21 and 8I10); argument: 513 (MCLLTEVGMSLLTEV; epitope peptide) [compound 513]
1032

---

Listing: Signal (peptides that bind to Z3G1) of selected substances
tested on: anti-M2 human monoclonal antibody Z3G1; assay type: binding

1288 (MSLLMEVETPIRNEWGCRCN; epitope peptide) [compound 1288] | 2847
398 (SLLTEVETPIRNEWGCRCNRSSD; epitope peptide) [compound 398] | 2514
303 (CSLLTEVGMCLLTEV; epitope sequence) [compound 303] | 2618

Return reported Signal (peptides that bind to Z3G1); argument: 568 (SLLTEVETPIRNEWGCRCQDSSD; epitope peptide) [compound 568]
2438

Return reported Signal (peptides that bind to Z3G1); argument: 1271 (MSLFTEVETPIRNEWGCRCN; epitope peptide) [compound 1271]
2115

---

system: HuM2e antibody 23K12; format: binding, human
Listing: Signal (peptides that bind to 23K21 and 8I10) of selected substances
Note: the reply should be a number with no unit written.

Known results for substances:
614 (SLLTEVETVIRNEWGCRCNDSSD; epitope peptide) [compound 614] | 810
688 (SLLTEVETPIRNETGCRCNDSSD; epitope peptide) [compound 688] | 724
621 (SLLTEVEFPIRNEWGCRCNDSSD; epitope peptide) [compound 621] | 805
412 (SLLTEVETPIRNEWGCRCNDNSD; epitope peptide) [compound 412] | 708
552 (SLLTEVETPIRNEWGCYCNDSSD; epitope peptide) [compound 552] | 913

Return reported Signal (peptides that bind to 23K21 and 8I10); argument: 593 (SLLTEVEIPIRNEWGCRCNDSSD; epitope peptide) [compound 593]
839

Return reported Signal (peptides that bind to 23K21 and 8I10); argument: 331 (MSLLTECGMSLLTCV; epitope peptide) [compound 331]
1690

Return reported Signal (peptides that bind to 23K21 and 8I10); argument: 712 (SLLTEVETPIRNDWGCRCNDSSD; epitope peptide) [compound 712]
706

Return reported Signal (peptides that bind to 23K21 and 8I10); argument: 298 (SLCTEVGSCLCEC; epitope peptide) [compound 298]
1967

---

tested on: anti-M2 human monoclonal antibody Z3G1; type: binding
OBSERVATION_TYPE: Signal (peptides that bind to Z3G1)
Note: the reply should be a number with no unit written.

Known results for substances:
674 (SLLTEVETPIRNEWGCRCTDSSD; epitope peptide) [compound 674] | 2253
570 (MCLLTEVGCSLLTEV; epitope peptide) [compound 570] | 2717

# ---- query substance ----
Return reported Signal (peptides that bind to Z3G1); argument: 1458 (CLTEVETPIRLLTEVETPICTEVETPIRN; epitope peptide; MISC_FEATURE (1)..(1): C is an attachment site for a CLIP; MISC_FEATURE (10)..(10): R is an attachment site for a CLIP; MISC_FEATURE (11)..(11): L is an attachment site for a CLIP; MISC_FEATURE (29)..(29): N is an attachment site for a CLIP) [compound 1458]
1756

---

Listing: Signal (peptides that bind to Z3G1) of selected substances
system: anti-M2 human monoclonal antibody Z3G1; type: binding
Note: the reply should be a number with no unit written.

1495 (CTEVETPIRNLLTEVETPICVETPIRNEW; epitope peptide; MISC_FEATURE (1)..(1): C is an attachment site for a CLIP; MISC_FEATURE (10)..(10): N is an attachment site for a CLIP; MISC_FEATURE (11)..(11): L is an attachment site for a CLIP; MISC_FEATURE (29)..(29): W is an attachment site for a CLIP) [compound 1495] | 2088

Return reported Signal (peptides that bind to Z3G1); argument: 413 (SLLTEVETPIRNEWGCRCNDPSD; epitope peptide) [compound 413]
2450

---

tested on: anti-M2 human monoclonal antibody Z3G1; format: binding
Listing: Signal (peptides that show specific binding to Z3G1) of selected substances
Note: the reply should be a number with no unit written.

Known results for substances:
685 (SLLTEVETPIRNVWGCRCNDSSD; epitope peptide) [compound 685] | 2281
679 (SLLTEVETPIRNEWGCECNDSSD; epitope peptide) [compound 679] | 2148
375 (SLLTEVETPIRNEWGCRVNDSSD; epitope peptide) [compound 375] | 2316
584 (SLLTEVETPIRNEWGCRRNDSSD; epitope peptide) [compound 584] | 2383

# ---- query substance ----
Return reported Signal (peptides that show specific binding to Z3G1); argument: 301 (SLLCEVGCSLLTEC; epitope sequence) [compound 301]
2637

---

tested on: HuM2e antibody 23K12; format: binding, human
Listing: Signal (peptides that bind to 23K21 and 8I10) of selected substances
Note: the reply should be a number with no unit written.

468 (SCLCECGSLLTEC; epitope peptide) [compound 468] | 1244
359 (MSLLTEVGMSCLTEV; epitope peptide) [compound 359] | 1535
686 (SLLTEVETPIRNEWGCRLNDSSD; epitope peptide) [compound 686] | 728
664 (SLLTEVETPIRNEWGNRCNDSSD; epitope peptide) [compound 664] | 746

# ---- query substance ----
Return reported Signal (peptides that bind to 23K21 and 8I10); argument: 446 (SLLTEVETPIRNEWGCRCND; epitope peptide) [compound 446]
738

---

test system: anti-M2 human monoclonal antibody Z3G1; format: binding
OBSERVATION_TYPE: Signal (peptides that show specific binding to Z3G1)
Note: the reply should be a number with no unit written.

675 (SLLTEVNTPIRNEWGCRCNDSSD; epitope peptide) [compound 675] | 2150
533 (CSLLTEVGSCLCEC; epitope peptide) [compound 533] | 2625
705 (SLLTEVKTPIRNEWGCRCNDSSD; epitope peptide) [compound 705] | 1905
388 (CSLLTEVGCLLTEV; epitope peptide) [compound 388] | 2427
1513 (CEVETPIRNELLTEVETPICETPIRNEWG; epitope peptide; MISC_FEATURE (1)..(1): C is an attachment site for a CLIP; MISC_FEATURE (10)..(10): E is an attachment site for a CLIP; MISC_FEATURE (11)..(11): L is an attachment site for a CLIP; MISC_FEATURE (29)..(29): G is an attachment site for a CLIP) [compound 1513] | 2466

Checklist item: Signal (peptides that show specific binding to Z3G1) tested on anti-M2 human monoclonal antibody Z3G1, entry 575 (SLLTEVRTPIRNEWGCRCNDSSD; epitope peptide) [compound 575] , value?
1024

Checklist item: Signal (peptides that show specific binding to Z3G1) tested on anti-M2 human monoclonal antibody Z3G1, entry 661 (SLLTEVETPIRQEWGCRCNDSSD; epitope peptide) [compound 661] , value?
2367

Checklist item: Signal (peptides that show specific binding to Z3G1) tested on anti-M2 human monoclonal antibody Z3G1, entry 357 (SLLTEVETPIPNEWGCRCNDSSD; epitope peptide) [compound 357] , value?
2515
